Target: T1, Axl (Homo sapiens, UniProt P30530)
T1 sequence (P30530 26-451 limits assumed): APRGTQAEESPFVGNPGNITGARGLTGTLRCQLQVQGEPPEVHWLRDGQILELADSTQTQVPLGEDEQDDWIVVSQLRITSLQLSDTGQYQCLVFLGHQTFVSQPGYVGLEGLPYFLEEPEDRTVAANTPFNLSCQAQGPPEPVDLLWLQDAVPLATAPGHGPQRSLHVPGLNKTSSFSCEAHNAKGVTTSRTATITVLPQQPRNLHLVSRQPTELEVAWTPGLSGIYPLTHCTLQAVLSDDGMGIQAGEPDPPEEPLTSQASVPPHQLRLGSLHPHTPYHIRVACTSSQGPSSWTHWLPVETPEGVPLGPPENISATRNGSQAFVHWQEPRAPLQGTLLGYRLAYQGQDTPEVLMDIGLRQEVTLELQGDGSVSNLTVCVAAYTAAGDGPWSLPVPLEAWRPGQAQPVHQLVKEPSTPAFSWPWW
Experiment: Affinity ELISA of CPE mutant antibodies for binding to Axl at pH 6.0 over pH 7.4
Settings: light chain variable region mutants; 1:3 dilution
Source text: The DNA encoding the wild-type antibody was evolved to generate a mutant antibody library using Comprehensive Positional Evolution (CPE), which each position in the template antibody is randomized one at a time. Each mutant antibody in the library has only one single point mutation. The mutant antibodies in the library were generated by simultaneously screening for selective binding affinity to Axl at pH 6.0 over pH 7.4 by ELISA. Two mutant antibody dilutions were used: 1:3 and 1:9 dilutions. […]
quantityMeasured: Affinity ELISA CPE mutant ratio (1:3, pH 6.0/7.4)
Please reply with the number alone, leaving off any unit.

Given the molecule LC-H091L (antibody, V domains shown) VH: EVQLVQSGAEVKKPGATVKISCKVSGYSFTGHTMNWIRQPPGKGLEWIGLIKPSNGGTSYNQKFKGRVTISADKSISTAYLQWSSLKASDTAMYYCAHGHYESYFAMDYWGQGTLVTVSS VL: DIQMTQSPSSLSASVGDRVTITCKASQDVSSAVAWYQQKPGQAPRLLIYWASTRHTGVPSRFSGSGSGTEFTLTISSLQPDDFATYYCQELFSTPLTFGQGTKVEIK , what is its reported Affinity ELISA CPE mutant ratio (1:3, pH 6.0/7.4)? 2.798

Please answer likewise for LC-V029N (antibody, V domains shown) VH: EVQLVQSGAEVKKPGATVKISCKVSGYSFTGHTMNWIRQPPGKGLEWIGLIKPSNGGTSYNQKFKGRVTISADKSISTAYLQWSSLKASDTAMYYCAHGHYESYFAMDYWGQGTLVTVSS VL: DIQMTQSPSSLSASVGDRVTITCKASQDNSSAVAWYQQKPGQAPRLLIYWASTRHTGVPSRFSGSGSGTEFTLTISSLQPDDFATYYCQEHFSTPLTFGQGTKVEIK 2.595

Please answer likewise for LC-F092G (antibody, V domains shown) VH: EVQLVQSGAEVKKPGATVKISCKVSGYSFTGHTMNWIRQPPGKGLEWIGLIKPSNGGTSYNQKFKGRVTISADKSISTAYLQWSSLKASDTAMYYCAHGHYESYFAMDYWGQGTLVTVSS VL: DIQMTQSPSSLSASVGDRVTITCKASQDVSSAVAWYQQKPGQAPRLLIYWASTRHTGVPSRFSGSGSGTEFTLTISSLQPDDFATYYCQEHGSTPLTFGQGTKVEIK 3.692
